- Assayed System: T1, soluble extracellular region of human CD38 fused to a 6-His-tag (human, UniProt P28907 43-300)
- T1 construct: Expressed with the murine VJ2C leader; also called human CD38 protein; human CD38 antigen
- Protocol Notes: SPR, antibody captured on protein G, CD38 injected
Measurement Type: pKd
Please note pKd is a logarithmic value: minus log10 of concentration in mol/L. Answer with that number alone.

Query: # query: pKd of entry humanized HB-7 best-fit antibody (antibody, human IgG1, kappa, V domains shown, Human IgG1 format) VH: QVQLQESGPGLVKPSETLSLTCTVSGFSLISYGVHWVRQPPGKGLEWLGVIWRGGSTDYNAAFMSRLTISKDNSKNQVSLKLSSVTAADTAVYFCAKTLITTGYAMDYWGQGTLVTVSS VL: DIQLTQSPSSLSASVGDRVTITCRASEDIYNRLAWYQQKPGKAPKLLISGATSLETGVPSRFSGSGSGKDYTLTISSLQPEDFATYYCQQYWSTPTFGQGTKLEIKR
Result: 8.44
